- Tested on: L1210 leukemia ip in BDF1 mice, survival T/C
- assay.text: NCI In Vivo Anticancer Drug Screen. Data for tumor model L1210 Leukemia (intraperitoneal) in B6D2F1 (BDF1) mice
- test.context: endpoint: mean survival time; dose: 200.0 mg/kg/injection; schedule: Q01DX001 (ip); vehicle: other; higher = longer survival
Inconclusive results and toxic doses are left out.
readout.label: T/C

Checklist item: T/C tested on L1210 leukemia ip in BDF1 mice, survival T/C, entry NC(=O)N=Nc1ccccc1 , value?
91 % of control

Please answer likewise for CCOC(=O)C(C)(C)CN(CC(C)(C)C(=O)OCC)C(C)(C)CO
98 % of control

Please answer likewise for Cn1ncc2c(Cl)ncnc21
94 % of control

Please answer likewise for O=S(Cc1ccccc1)C(Cl)(Cl)c1ccccc1 (stereo unspecified)
98 % of control

Please answer likewise for COc1cc(C)c2ccc3ccccc3c2n1
95 % of control

Please answer likewise for Cc1cc(N(C)C)nc(N(C)C)n1
101 % of control

Please answer likewise for Cc1cc(=O)[nH]c2c(Cl)ccc(C(F)(F)F)c12
94 % of control

Please answer likewise for COc1cccc(C(=O)O)c1[N+](=O)[O-]
115 % of control

Please answer likewise for O=C(O)/C(Cc1cn[nH]n1)=N\O
101 % of control

Please answer likewise for O=C(O)C1=C(C(=O)O)C2C=CC1N2Cc1ccccc1
102 % of control

Please answer likewise for COC(=O)C(O)(C#CC(C)C)c1ccccc1 (stereo unspecified)
100 % of control
